- SYSTEM TESTED: Aβ fibrils (Homo sapiens)
- TEST NAME: Thioflavin T competition assay (Example 130, Table 9), Aβ fibrils
- Type: binding
- Design: Synthetic Aβ42 peptide (1 mg) (Bachem, Torrance, Calif.); purchased Bachem, Torrance, Calif; host or cells: synthetic peptide
- CONDITION NOTES: average; read-out: Aβ-fibrils Ki (avg)
OBSERVATION TYPE: Ki (nM)
Give bare numbers, in nM.

[Q] What value of Ki has been reported for the following compound? COc1cc(/C=C/c2ccc3cc(OCCF)ccc3n2)ccn1 [[^18F]TZ-36-148]
[A] 168

====

- TEST NAME: Biodistribution in male Balb/C mice
- Format: in vivo
- CONDITION NOTES: 30 min post injection, tail vein; mean ± SD, n = 4
OBSERVATION TYPE: Biodistribution: Fat (% ID/g)
Give bare numbers, in % ID/g.

As a guide, the following entries are already answered.
| COMPOUND | REPORTED VALUE |
| --- | --- |
| O=C(Nc1ccc(OCCC[18F])cc1)c1ccc(/C=C/c2ccncc2)cc1 [[^18F]TZ-23-92] | 1.34 |
| O=C(Nc1ccc(OCC[18F])cc1)c1ccc(/C=C/c2ccncc2)cc1 [[^18F]TZ-23-88] | 1.70 |
| COc1ccc(NC(=O)c2ccc(/C=C/c3ccncc3)cc2)cc1 [[^11C]TZ-20-83] | 1.73 |

Consider now this further compound.
[Q] I'd like to know its Biodistribution: Fat. The compound in question is COC(=O)c1ccc(/C=C/c2ccncc2)cc1 [[^11C]TZ-20-35]
[A] 0.86

====

- TEST NAME: Biodistribution in male Balb/C mice
- Format: in vivo
- CONDITION NOTES: 30 min post injection, tail vein; mean ± SD, n = 4
OBSERVATION TYPE: Biodistribution: Liver

In the examples that follow, each entry is paired with its recorded Biodistribution: Liver.
| COMPOUND | OBSERVATION TYPE | REPORTED VALUE |
| --- | --- | --- |
| O=C(Nc1ccc(OCC[18F])cc1)c1ccc(/C=C/c2ccncc2)cc1 [[^18F]TZ-23-88] | Biodistribution: Liver | 19.56 ± 0.97 % ID/g |
| COC(=O)c1ccc(/C=C/c2ccncc2)cc1 [[^11C]TZ-20-35] | Biodistribution: Liver | 8.72 ± 0.37 % ID/g |
| O=C(Nc1ccc(OCCC[18F])cc1)c1ccc(/C=C/c2ccncc2)cc1 [[^18F]TZ-23-92] | Biodistribution: Liver | 14.47 ± 1.13 % ID/g |

[Q] Need Biodistribution: Liver, item COc1ccc(NC(=O)c2ccc(/C=C/c3ccncc3)cc2)cc1 [[^11C]TZ-20-83]
[A] 17.94 ± 3.86 % ID/g

====

- SYSTEM TESTED: Aβ fibrils (Homo sapiens, UniProt P05067)
- Sequence (P05067 672-713 limits assumed): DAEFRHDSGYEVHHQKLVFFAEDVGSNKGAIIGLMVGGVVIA
- TEST NAME: Thioflavin T competition assay (Example 130, Table 9), Aβ fibrils
- Assay type: binding
- Design: Synthetic Aβ42 peptide (1 mg) (Bachem, Torrance, Calif.); purchased Bachem, Torrance, Calif; host or cells: synthetic peptide
- CONDITION NOTES: average; read-out: Aβ-fibrils EC50 (avg)
OBSERVATION TYPE: pEC50
Answers are plain numbers, as −log10 of the molar value.

[Q] Looking for the measured pEC50 of COc1cc(/C=C/c2ccc3cc(OCCF)ccc3n2)ccn1 [[^18F]TZ-36-148] , can you help?
[A] 6.35

Reference for the values: patent US10300155B2
